Tested on: femoral artery
Assay: Change of femoral arterial blood flow in anesthetized dogs (Experimental Example 4)
Format: in vivo, dog
Settings: 100 μg/kg i.v., 20 min
measurementLabel: Femoral Arterial Blood Flow change

[[record]]
compound = "CC(=O)O[C@H]1C(=O)N(CCN(C)C)c2ccc(C)cc2S[C@H]1c1ccc(C)cc1 [G, reference compound]"
measurementlabel = "Femoral Arterial Blood Flow change"
assayvalue = "7.5 Δ ml/min"

[[record]]
compound = "COc1ccc([C@H]2Sc3ccccc3N(CCN(C)C)C(=O)[C@H]2OC(C)=O)cc1"
measurementlabel = "Femoral Arterial Blood Flow change"
assayvalue = "64.5 Δ ml/min"

[[record]]
compound = "COc1ccc([C@@H]2Sc3ccccc3N(CCN(C)C)C(=O)[C@@H]2OC(C)=O)cc1 [H, reference compound]"
measurementlabel = "Femoral Arterial Blood Flow change"
assayvalue = "1.0 Δ ml/min"

[[record]]
compound = "CC(=O)O[C@@H]1C(=O)N(CCN(C)C)c2ccc(C)cc2S[C@@H]1c1ccc(C)cc1"
measurementlabel = "Femoral Arterial Blood Flow change"
assayvalue = "21.5 Δ ml/min"

